assaySystem: IL-6 (UniProt P05231 30-212)
Sequence (P05231 30-212): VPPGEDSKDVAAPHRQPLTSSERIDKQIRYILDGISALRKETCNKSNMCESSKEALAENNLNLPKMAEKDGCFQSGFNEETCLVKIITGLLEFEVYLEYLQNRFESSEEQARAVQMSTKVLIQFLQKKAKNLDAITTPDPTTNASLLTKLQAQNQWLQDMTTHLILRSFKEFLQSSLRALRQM
experimentDescription: graphene FET (Hill-Langmuir fit); 2000 Da PEG, undiluted lavage fluid; 1x PBS, artificial sweat (10x diluted or undiluted) or undiluted lavage fluid; aptamer immobilized on graphene; pH and temperature not stated
assayConditions: protein: commercial
parameter: Kd (pM)

> print(dat)
                                     binder  readoutvalue
1  GGTGGCAGGAGGACTATTTATTTGCTTTTCT (ssDNA, 5'-NH2) [IL-6 aptamer]           194
